Recorded values, source patent US20230398130A1.

# Test system: ISC-enriched organoids
# Measurement Protocol: Primary screen, 384-well 2.5-D organoid differentiation (ENR+CD, 6 days): basal lysozyme secretion (LYZ.NS)
# Format: cell-based, murine
# Conditions: Dose 10.00 uM; primary screen, standard z score
Measured Parameter: Z.LYZ.NS
// response body must contain only the number

compound="Cc1cccc(CC(=O)N2CCc3c2ccc(-c2cn(C)c4ncnc(N)c24)c3F)n1 [GSK2656157]" obs_value=−0.102

Task: Could you share which Z.LYZ.NS value was measured for Nc1cccc2c1CN(C1CCC(=O)NC1=O)C2=O (stereo not shown) [Lenalidomide (CC-5013)] ?
Output: −0.360

Task: Report Z.LYZ.NS for C[C@H](NC(=O)[C@@H](O)c1cc(F)cc(F)c1)C(=O)N[C@@H]1C(=O)N(C)c2ccccc2-c2ccccc21 [LY411575] please.
Output: −0.949

Task: May I ask what Z.LYZ.NS has been recorded for Oc1ccc2ccccc2c1SSc1c(O)ccc2ccccc12 [IPA-3] ?
Output: −0.186

====

# Tested on: ISC-enriched organoids
# Measurement Protocol: Primary screen, 384-well 2.5-D organoid differentiation (ENR+CD, 6 days): carbachol-induced lysozyme secretion (LYZ.S)
# Assay type: cell-based, murine
# Conditions: strictly standardized mean difference; primary screen; 1st of the 4 dose lines of the treatment (dose not given)
Counter-ions that a name gives are not always drawn.
Each entry below carries its reported SSMD.LYZ.S.

In the examples that follow, each entry is paired with its recorded SSMD.LYZ.S.
compound=CC(C)(C)c1cc(C(C)(C)C)c(NC(=O)c2c[nH]c3ccccc3c2=O)cc1O measured_target="ISC-enriched organoids" measured_parameter=SSMD.LYZ.S obs_value=0.705
compound=CNC(=O)[C@H](Cc1c[nH]c2ccccc12)NC(=O)[C@@H](CC(=O)NO)CC(C)C measured_target="ISC-enriched organoids" measured_parameter=SSMD.LYZ.S obs_value=1.175
compound=N#Cc1ccc(C(c2ccc(C#N)cc2)n2cncn2)cc1 measured_target="ISC-enriched organoids" measured_parameter=SSMD.LYZ.S obs_value=0.212
compound=CCc1c2c(nc3ccc(OC(=O)N4CCC(N5CCCCC5)CC4)cc13)-c1cc3c(c(=O)n1C2)COC(=O)[C@]3(O)CC measured_target="ISC-enriched organoids" measured_parameter=SSMD.LYZ.S obs_value=−0.018
compound="Cl.Cl.NC1(c2ccc(-c3nc4ccn5c(=O)[nH]nc5c4cc3-c3ccccc3)cc2)CCC1 [MK-2206 2HCl]" measured_target="ISC-enriched organoids" measured_parameter=SSMD.LYZ.S obs_value=0.403

Task: Reported SSMD.LYZ.S, compound Cc1ccc(NCCCc2ccccc2)c(N)c1 : ____
Output: 1.259

Task: Given the entry CCOC(=O)[C@H](CCc1ccccc1)N[C@@H](C)C(=O)N1C(=O)N(C)C[C@H]1C(=O)O [Imidapril HCl] , report its measured SSMD.LYZ.S.
Output: −0.269

Task: So what's the measured SSMD.LYZ.S for this one? O=C(C[S+]([O-])Cc1ccco1)NC/C=C\COc1cc(CN2CCCCC2)ccn1 (centres unmarked)
Output: 0.331

====

# Test system: ISC-enriched organoids
# Measurement Protocol: Primary screen, 384-well 2.5-D organoid differentiation (ENR+CD, 6 days): basal lysozyme secretion (LYZ.NS)
# Type: cell-based, murine
# Conditions: primary screen, dose 0.40 uM, ENR+CD 6 days, FC vs plate median
Note to self: values exactly at 0.04 log 2 fold change are T. So Dose.FC.LYZ.NS at or above 0.04 log 2 fold change is T, below is F.

Examples from the recorded data:
molecule=COc1cc2c(cc1O)CC[C@@H]1[C@@H]2CC[C@]2(C)[C@@H](O)CC[C@@H]12 label=T
molecule=O=C(O)c1ccc(N2C(=O)/C(=C\c3ccc(-c4ccc([N+](=O)[O-])cc4)o3)C=C2c2ccccc2)cc1 label=F
molecule=CC(C)N(CC[C@H](c1ccccc1)c1cc(CO)ccc1O)C(C)C label=T
molecule="CN1CCc2cc3c(cc2[C@H]1[C@@H]1OC(=O)c2c1ccc1c2OCO1)OCO3 [(+)-Bicuculline]" label=F
molecule=CC1(C)CCC(c2ccc(Cl)cc2)=C(CN2CCN(c3ccc(C(=O)NS(=O)(=O)c4ccc(N[C@H](CCN5CCOCC5)CSc5ccccc5)c(S(=O)(=O)C(F)(F)F)c4)cc3)CC2)C1 label=F

Task: Hi team, for CN(C)C(=O)c1ccc(S(=O)(=O)c2ccc(NC(=O)[C@@](C)(O)C(F)(F)F)c(Cl)c2)cc1 , is the recorded Dose.FC.LYZ.NS at or above 0.04 log 2 fold change?
Output: F

Task: Kindly determine if Dose.FC.LYZ.NS recorded for CN(C)Cc1ccc(-c2nc3cccc4c3n2CCNC4=O)cc1 is above or exactly 0.04 log 2 fold change.
Output: F
